- target-entity: human M1 muscarinic acetylcholine receptor (Homo sapiens (Human), UniProt P11229)
- Sequence (P11229 whole entry): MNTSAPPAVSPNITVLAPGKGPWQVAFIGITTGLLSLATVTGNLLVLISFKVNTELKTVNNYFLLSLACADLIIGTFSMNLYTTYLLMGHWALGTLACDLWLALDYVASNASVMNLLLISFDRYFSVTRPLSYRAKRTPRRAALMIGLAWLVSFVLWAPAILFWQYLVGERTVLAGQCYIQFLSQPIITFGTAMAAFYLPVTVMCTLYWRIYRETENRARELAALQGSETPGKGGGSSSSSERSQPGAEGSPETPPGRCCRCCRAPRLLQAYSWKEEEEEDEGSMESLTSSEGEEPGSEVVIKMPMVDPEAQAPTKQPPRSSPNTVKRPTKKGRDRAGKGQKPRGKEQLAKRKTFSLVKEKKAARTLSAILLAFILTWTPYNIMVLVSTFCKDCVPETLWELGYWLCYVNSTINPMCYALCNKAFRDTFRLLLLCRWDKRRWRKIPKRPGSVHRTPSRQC
- assay-overview: R-SAT (Receptor Selection and Amplification) assay, M1
- Assay type: cell-based
- stated-conditions: percent efficacy vs carbachol = 100 percent, read-out: M1 EFF % AVG
Items are presented alongside their recorded Emax.

Here's what some known entries look like.
Lookup: Enter measured Emax, system human M1 muscarinic acetylcholine receptor (Homo sapiens (Human), UniProt P11229), for the compound shown: Cc1nn(C[C@H](C)CN2[C@@H]3CC[C@H]2C[C@@H](OCC2CC2)C3)c2ccccc12 [Compound 316]
Found: 78%

Lookup: Enter measured Emax, system human M1 muscarinic acetylcholine receptor (Homo sapiens (Human), UniProt P11229), for the compound shown: CCCO[C@H]1C[C@H]2CC[C@@H](C1)N2C[C@@H](C)Cn1ncc2ccccc21 [Compound 319s]
Found: 111%

Lookup: Enter measured Emax, system human M1 muscarinic acetylcholine receptor (Homo sapiens (Human), UniProt P11229), for the compound shown: C=CCO[C@H]1C[C@H]2CC[C@@H](C1)N2C[C@@H](C)Cn1ncc2ccc(F)cc21 [Compound 308]
Found: 131%

Next:
Lookup: Enter measured Emax, system human M1 muscarinic acetylcholine receptor (Homo sapiens (Human), UniProt P11229), for the compound shown: C#CCO[C@H]1C[C@H]2CC[C@@H](C1)N2C[C@@H](C)Cn1ncc2ccccc21 [Compound 318s]
Found: 122%

Lookup: Enter measured Emax, system human M1 muscarinic acetylcholine receptor (Homo sapiens (Human), UniProt P11229), for the compound shown: CCOCC[C@H]1C[C@H]2CC[C@@H](C1)N2C[C@@H](C)Cn1ncc2ccccc21 [Compound 323]
Found: 66%

Lookup: Enter measured Emax, system human M1 muscarinic acetylcholine receptor (Homo sapiens (Human), UniProt P11229), for the compound shown: COC/C=C1\C[C@H]2CC[C@@H](C1)N2C[C@@H](C)Cn1ncc2ccccc21 [Compound 320s]
Found: 109%

Lookup: Enter measured Emax, system human M1 muscarinic acetylcholine receptor (Homo sapiens (Human), UniProt P11229), for the compound shown: Cc1ccc2c(cnn2C[C@H](C)CN2[C@@H]3CC[C@H]2C[C@@H](OCC2CC2)C3)c1 [Compound 321]
Found: 75%

Lookup: Enter measured Emax, system human M1 muscarinic acetylcholine receptor (Homo sapiens (Human), UniProt P11229), for the compound shown: Cc1cccc2cnn(C[C@H](C)CN3[C@@H]4CC[C@H]3C[C@@H](OCC3CC3)C4)c12 [Compound 317]
Found: 81%

---

- target-entity: human M1 muscarinic acetylcholine receptor (Homo sapiens (Human), UniProt P11229)
- assay-overview: R-SAT (Receptor Selection and Amplification) assay, M1
- Assay type: cell-based
- stated-conditions: NIH-3T3 cells
- Protocol: Briefly, NIH-3T3 cells were grown in 96-well tissue culture plates to 70% to 80% confluence. Cells were transfected with plasmid DNAs using Superfect Reagent (QIAGEN, Valencia, Calif.) as per the manufacturer's protocols. […] Media were then removed from the plates, and beta-galactosidase activity was measured by the addition of o-nitrophenyl-D-galactopyranoside (in phosphate-buffered saline with 5% NP-40 detergent). […]
Items are presented alongside their recorded M1 PEC50 AVG.
Give your answer as a number; write no unit.

Lookup: Identify the reported M1 PEC50 AVG for the following entry. Cc1ccc2c(cnn2C[C@H](C)CN2[C@@H]3CC[C@H]2C[C@@H](OCC2CC2)C3)c1
Found: 7.9

Lookup: Identify the reported M1 PEC50 AVG for the following entry. COC/C=C1\C[C@H]2CC[C@@H](C1)N2C[C@@H](C)Cn1ncc2ccccc21 [Compound 320s]
Found: 8.2

Lookup: Identify the reported M1 PEC50 AVG for the following entry. C#CCO[C@H]1C[C@H]2CC[C@@H](C1)N2C[C@@H](C)Cn1ncc2ccccc21 [Compound 318s]
Found: 8.0

Next:
Lookup: Identify the reported M1 PEC50 AVG for the following entry. Cc1nn(C[C@H](C)CN2[C@@H]3CC[C@H]2C[C@@H](OCC2CC2)C3)c2ccccc12
Found: 7.9

---

Items are presented alongside their recorded Emax.
- target-entity: M1 muscarinic receptor (Homo sapiens (Human))
- assay-overview: M1 GTPγS binding assay;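 as to Emax: efficacy relative to carbachol as 100%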
- Assay type: biochemical
- stated-conditions: read-out: M1 GTPγS EFF % AVG
# output: bare number, implied unit %

Lookup: Identify the reported Emax for the following entry. C#CCO[C@H]1C[C@H]2CC[C@@H](C1)N2C[C@@H](C)Cn1ncc2ccccc21 [Compound 318s]
Found: 66

Next:
Lookup: Identify the reported Emax for the following entry. C[C@H](CN1[C@@H]2CC[C@H]1C[C@@H](OCC1CCC1)C2)Cn1ncc2ccccc21
Found: 36

Lookup: Identify the reported Emax for the following entry. Cc1nn(C[C@H](C)CN2[C@@H]3CC[C@H]2C[C@@H](OCC2CC2)C3)c2ccccc12
Found: 88

Lookup: Identify the reported Emax for the following entry. COC/C=C1\C[C@H]2CC[C@@H](C1)N2C[C@@H](C)Cn1ncc2ccccc21 [Compound 320s]
Found: 60

---

Items are presented alongside their recorded M2 PEC50 AVG.
- target-entity: human M2 muscarinic acetylcholine receptor (Homo sapiens (Human), UniProt P08172)
- Sequence (P08172 whole entry): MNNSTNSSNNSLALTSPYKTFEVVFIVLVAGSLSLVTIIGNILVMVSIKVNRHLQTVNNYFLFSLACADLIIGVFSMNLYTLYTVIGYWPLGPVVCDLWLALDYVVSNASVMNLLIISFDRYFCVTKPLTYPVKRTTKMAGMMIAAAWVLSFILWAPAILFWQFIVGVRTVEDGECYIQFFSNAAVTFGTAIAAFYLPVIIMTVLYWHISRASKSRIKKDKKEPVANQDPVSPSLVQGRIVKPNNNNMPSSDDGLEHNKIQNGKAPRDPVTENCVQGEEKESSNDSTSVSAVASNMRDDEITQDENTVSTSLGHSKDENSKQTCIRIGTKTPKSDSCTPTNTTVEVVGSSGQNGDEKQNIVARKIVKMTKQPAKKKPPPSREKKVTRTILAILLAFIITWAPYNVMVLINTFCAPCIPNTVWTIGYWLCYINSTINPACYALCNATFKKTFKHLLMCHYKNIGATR
- assay-overview: R-SAT (Receptor Selection and Amplification) assay, M2
- Type: cell-based
- stated-conditions: R-SAT, NIH-3T3 cells
Give your answer as a number; write no unit.

Here's what some known entries look like.
Lookup: Identify the reported M2 PEC50 AVG for the following entry. CCCO[C@H]1C[C@H]2CC[C@@H](C1)N2C[C@@H](C)Cn1ncc2ccccc21 [Compound 319s]
Found: 7.5

Lookup: Identify the reported M2 PEC50 AVG for the following entry. C#CCO[C@H]1C[C@H]2CC[C@@H](C1)N2C[C@@H](C)Cn1ncc2ccccc21 [Compound 318s]
Found: 7.2

Lookup: Identify the reported M2 PEC50 AVG for the following entry. C=CCO[C@H]1C[C@H]2CC[C@@H](C1)N2C[C@@H](C)Cn1ncc2ccccc21
Found: 6.9

Lookup: Identify the reported M2 PEC50 AVG for the following entry. C=CCO[C@H]1C[C@H]2CC[C@@H](C1)N2C[C@@H](C)Cn1ncc2ccc(F)cc21
Found: 7.4

Lookup: Identify the reported M2 PEC50 AVG for the following entry. COCC[C@H]1C[C@H]2CC[C@@H](C1)N2C[C@@H](C)Cn1ncc2ccc(F)cc21
Found: 7.5

Next:
Lookup: Identify the reported M2 PEC50 AVG for the following entry. C[C@H](CN1[C@@H]2CC[C@H]1C[C@@H](OCC1CCC1)C2)Cn1ncc2ccccc21
Found: 7.3

Lookup: Identify the reported M2 PEC50 AVG for the following entry. COCC[C@H]1C[C@H]2CC[C@@H](C1)N2C[C@@H](C)Cn1ncc2ccccc21 [Compound 303S]
Found: 7.1

Lookup: Identify the reported M2 PEC50 AVG for the following entry. COC/C=C1\C[C@H]2CC[C@@H](C1)N2C[C@@H](C)Cn1ncc2ccccc21 [Compound 320s]
Found: 7.2

Lookup: Identify the reported M2 PEC50 AVG for the following entry. CC(C)(C)OC(=O)N1C2CC[C@H]1C[C@@H](O)C2 [Comparative compound 2, reference compound]
Found: 7.1

Lookup: Identify the reported M2 PEC50 AVG for the following entry. Cc1ccc2cnn(C[C@H](C)CN3[C@@H]4CC[C@H]3C[C@@H](OCC3CC3)C4)c2c1
Found: 7.6

Lookup: Identify the reported M2 PEC50 AVG for the following entry. C[C@H](CN1[C@@H]2CC[C@H]1C[C@@H](OC1CCCC1)C2)Cn1ncc2ccccc21 [Compound 314s]
Found: 7.3

---

- target-entity: human M2 muscarinic acetylcholine receptor (Homo sapiens (Human))
- assay-overview: R-SAT (Receptor Selection and Amplification) assay, M2
- Format: cell-based
- stated-conditions: read-out: M2 EFF % AVG
recorded-metric: Emax (%)
# output: bare number, implied unit %

Here's what some known entries look like.
Lookup: Identify the reported Emax for the following entry. C#CCO[C@H]1C[C@H]2CC[C@@H](C1)N2C[C@@H](C)Cn1ncc2ccc(OC)cc21 [Compound 322s]
Found: 44

Lookup: Identify the reported Emax for the following entry. COC/C=C1\C[C@H]2CC[C@@H](C1)N2C[C@@H](C)Cn1ncc2ccccc21 [Compound 320s]
Found: 90

Lookup: Identify the reported Emax for the following entry. Cc1ccc2c(cnn2C[C@H](C)CN2[C@@H]3CC[C@H]2C[C@@H](OCC2CC2)C3)c1 [Compound 321]
Found: 19

Lookup: Identify the reported Emax for the following entry. Cc1cccc2cnn(C[C@H](C)CN3[C@@H]4CC[C@H]3C[C@@H](OCC3CC3)C4)c12 [Compound 317]
Found: 46

Now turn to the next compound.
Lookup: Identify the reported Emax for the following entry. COCC[C@H]1C[C@H]2CC[C@@H](C1)N2C[C@@H](C)Cn1ncc2ccc(F)cc21 [Compound 309]
Found: 176

---

- target-entity: M1 muscarinic receptor (Homo sapiens (Human))
- assay-overview: M1 GTPγS binding assay
- Assay type: biochemical
- stated-conditions: GTPγS binding
recorded-metric: M1 GTPγS PEC50 AVG

Here's what some known entries look like.
Lookup: Identify the reported M1 GTPγS PEC50 AVG for the following entry. C[C@H](CN1[C@@H]2CC[C@H]1C[C@@H](OCC1CC1)C2)Cn1ncc2ccc(F)cc21
Found: 8.0

Lookup: Identify the reported M1 GTPγS PEC50 AVG for the following entry. C[C@H](CN1[C@@H]2CC[C@H]1C[C@@H](OCC1CC1)C2)Cn1ncc2ccccc21 [Compound 302S]
Found: 8.5

Lookup: Identify the reported M1 GTPγS PEC50 AVG for the following entry. C=CCO[C@H]1C[C@H]2CC[C@@H](C1)N2C[C@@H](C)Cn1ncc2ccc(F)cc21
Found: 7.1

Lookup: Identify the reported M1 GTPγS PEC50 AVG for the following entry. COCC[C@H]1C[C@H]2CC[C@@H](C1)N2C[C@@H](C)Cn1ncc2ccc(F)cc21
Found: 7.3

Lookup: Identify the reported M1 GTPγS PEC50 AVG for the following entry. CC(C)(C)OC(=O)N1C2CC[C@H]1C[C@@H](O)C2 [Comparative compound 2, reference compound]
Found: 7.9

Now turn to the next compound.
Lookup: Identify the reported M1 GTPγS PEC50 AVG for the following entry. Cc1ccc2cnn(C[C@H](C)CN3[C@@H]4CC[C@H]3C[C@@H](OCC3CC3)C4)c2c1
Found: 8.3
